- TEST TARGET: T1, human PD-L1 on cells (human, UniProt Q9NZQ7 19-290)
- T1 construct: Endogenous on MDA-MB-231 cells or transfected into HEK293FF cells (Sino Biological plasmid); the assay field says which; also called native PD-L1 on MDA-MB-231 cells; PD-L1 expressing MDA-MB-231 cells
- T1 sequence (Q9NZQ7 19-290 limits assumed): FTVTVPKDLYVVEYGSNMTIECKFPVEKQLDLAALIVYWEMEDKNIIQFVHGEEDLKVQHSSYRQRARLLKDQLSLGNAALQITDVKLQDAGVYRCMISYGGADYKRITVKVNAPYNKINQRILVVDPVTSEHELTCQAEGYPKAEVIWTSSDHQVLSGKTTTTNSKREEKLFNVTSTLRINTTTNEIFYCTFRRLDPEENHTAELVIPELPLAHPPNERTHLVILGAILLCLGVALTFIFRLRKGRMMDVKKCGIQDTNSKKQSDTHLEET
- TEST: flow cytometry on MDA-MB-231 cells, Krebs buffer, pH 6
The reader will find reported pEC50 values listed item by item below.
// pEC50 here means minus log10 of the molar concentration (mol/L)

>  <BINDER>
Fab 8B06 (Fab, V domains shown, Purified Fab prepared from IgG with the Pierce kit; also called 8B06 Fab) VH: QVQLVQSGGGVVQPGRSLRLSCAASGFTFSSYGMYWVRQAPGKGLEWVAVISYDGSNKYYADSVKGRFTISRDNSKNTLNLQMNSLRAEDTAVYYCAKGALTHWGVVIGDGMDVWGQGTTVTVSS VL: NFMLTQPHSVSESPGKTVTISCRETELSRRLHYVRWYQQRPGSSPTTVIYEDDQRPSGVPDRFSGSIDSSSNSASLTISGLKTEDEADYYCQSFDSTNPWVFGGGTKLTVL

>  <RECORDED VALUE>
8.70

$$$$

Lookup: Record request: pEC50 value, item Fab 8D06 (Fab, V domains shown, Purified Fab prepared from IgG with the Pierce kit; also called 8D06 Fab) VH: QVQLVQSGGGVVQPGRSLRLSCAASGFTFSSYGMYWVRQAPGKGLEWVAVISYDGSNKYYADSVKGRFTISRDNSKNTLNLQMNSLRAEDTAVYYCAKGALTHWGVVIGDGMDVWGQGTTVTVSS VL: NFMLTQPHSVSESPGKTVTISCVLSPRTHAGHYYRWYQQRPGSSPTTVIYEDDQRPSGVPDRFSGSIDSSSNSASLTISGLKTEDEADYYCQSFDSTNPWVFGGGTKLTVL
Found: 8.84
